B1: 5KPH (parent)
chain: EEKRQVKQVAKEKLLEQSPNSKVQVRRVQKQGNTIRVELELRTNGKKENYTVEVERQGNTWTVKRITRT

# Variants of: B1
# method-description: folding stability dG (cDNA display proteolysis); higher = more stable
# particulars: PBS, room temperature
Class assignment keyed on folding stability dG, ranges c1: < 3 kcal/mol; c2: ≥ 3 kcal/mol and < 4 kcal/mol; c3: ≥ 4 kcal/mol

Hello team, could you let me know which band the following variant falls into: N59V
c2

State the class of the variant shown: N44I
c2

Sort E2V into one of the categories.
c2

Input N20D ; output its category
c2

Which of the defined bands does the recorded folding stability dG of V28R sit within?
c1

Band of R42D ?
c3

Class? Entry: Y50S
c1

Sort into band: W61A
c1

Sort Q17F into one of the categories.
c3

Exercise: read the entry W61R and state which class it falls under.
c1

Exercise: read the entry T60W and state which class it falls under.
c3

For this variant, which bin applies? T62D
c2

Hi there! Could you help me figure out the category for K30M please?
c3

Form field 'band' for V52L
c2

Form: Item = E55T ; Class = ?
c2

Kindly identify the class of V9Q .
c2

Form field 'band' for R56V
c2

Kindly identify the class of K30V .
c3

GET /class?item= L14Q
c1

Which class holds V25R ?
c1

// bin(item) where item = Q57F
c2

Into which bin does this variant go? E55M
c2

Band for V23P ?
c1

Hi there! Could you help me figure out the category for E12I please?
c2

Consider E55K . To which folding stability dG class does it belong?
c2

Into which bin does this variant go? Q57H
c2

Assign a bin to E12T
c2

Pick a category. Item: S21T
c1

Could you tell me which band E40A belongs to?
c2
